Biological target: hV1a receptor (Homo sapiens)
Construct: expressed in transfected cells; host or cells: HEK-293
Assay: hV1a receptor transcriptional reporter (luciferase) agonist assay
Format: cell-based
pEC50: −log10 of the molar value. Starred links: 1 amine or outer side, 2 acyl side, 3 side chain; linkers in the order of their positions; H or OH if unused. Positions of bridges follow the written chain, without caps; N, C: chain ends. Non-standard residues stand in square brackets, D forms with d. Residues, ends and D or L forms follow the SMILES beside them. *: point of attachment. X3 = CC(C)CCNCCC[C@H](N[*:1])C(=O)[*:2]; NH(3-hydroxypropyl) = OCCCN*; Orn = NCCC[C@H](N)C(=O)O
Measured pEC50 values are reported for all entries that follow.

[
  {
    "Compound": "NCCCC[C@H](NC(=O)[C@@H]1CCCN1C(=O)[C@@H]1CSSC[C@H](NC(=O)CNC(=O)CNC(=O)CN)C(=O)N[C@@H](Cc2ccc(O)cc2)C(=O)N[C@@H](Cc2ccccc2)C(=O)N[C@@H](CCC(N)=O)C(=O)N[C@@H](CC(N)=O)C(=O)N1)C(=O)NCC(N)=O [terlipressin, reference compound] (H-GGGCYFQNCPKG-NH2; disulfide 4-9)",
    "pEC50": 7.09
  },
  {
    "Compound": "CC[C@H](C)[C@@H]1NC(=O)[C@H](Cc2ccccc2)NC(=O)[C@@H](N)CSSC[C@@H](C(=O)N2CCC[C@H]2C(=O)N[C@@H](CCCN)C(=O)NCC(N)=O)NC(=O)[C@H](CC(N)=O)NC(=O)[C@H](CC(=O)NCCCO)NC1=O [Compound 2] (H-CFID(NH(3-hydroxypropyl))NCP[Orn]G-NH2; disulfide 1-6)",
    "pEC50": 8.93
  },
  {
    "Compound": "CC[C@H](C)[C@@H]1NC(=O)[C@H](Cc2ccccc2)NC(=O)[C@@H](N)CSSC[C@@H](C(=O)N2CCC[C@H]2C(=O)N[C@@H](CCCNCCC(C)C)C(=O)NCC(N)=O)NC(=O)[C@H](CC(N)=O)NC(=O)[C@H](CCC(N)=O)NC1=O [Compound 45] (H-CFIQNCP[X3]G-NH2; disulfide 1-6; N-terminus and C-terminus assumed)",
    "pEC50": 8.78
  }
]

* * *

Biological target: hV1a receptor (Homo sapiens, UniProt P37288)
Construct: expressed in transfected cells; host or cells: HEK-293
Sequence (P37288 whole entry): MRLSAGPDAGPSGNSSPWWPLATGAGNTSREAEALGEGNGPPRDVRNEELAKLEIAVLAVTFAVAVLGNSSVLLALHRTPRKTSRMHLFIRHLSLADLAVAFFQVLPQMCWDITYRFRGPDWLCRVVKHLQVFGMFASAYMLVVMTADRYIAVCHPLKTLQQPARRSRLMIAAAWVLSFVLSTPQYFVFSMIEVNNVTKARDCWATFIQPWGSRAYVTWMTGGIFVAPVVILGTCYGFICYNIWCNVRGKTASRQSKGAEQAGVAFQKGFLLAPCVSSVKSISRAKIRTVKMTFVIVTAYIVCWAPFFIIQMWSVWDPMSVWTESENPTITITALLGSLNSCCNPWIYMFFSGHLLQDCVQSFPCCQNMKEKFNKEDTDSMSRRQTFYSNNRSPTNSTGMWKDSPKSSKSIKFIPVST
Experiment: hV1a receptor transcriptional reporter (luciferase) agonist assay
Format: cell-based
Details: HEK-293 cells transiently transfected with hV1a receptor, 5 hours exposure, geometric mean; read-out: EC50 hV1a receptor
pEC50: −log10 of the molar value. Starred links: 1 amine or outer side, 2 acyl side, 3 side chain; linkers in the order of their positions; H or OH if unused. Positions of bridges follow the written chain, without caps; N, C: chain ends. Non-standard residues stand in square brackets, D forms with d. Residues, ends and D or L forms follow the SMILES beside them. X1 = CCNCCC[C@H](N[*:1])C(=O)[*:2]; Orn = NCCC[C@H](N)C(=O)O; Dab = NCC[C@H](N)C(=O)O
Measured pEC50 values are reported for all entries that follow.

[
  {
    "Compound": "CCNCCC[C@H](NC(=O)[C@@H]1CCCN1C(=O)[C@@H]1CSSC[C@H](N)C(=O)N[C@@H](Cc2ccccc2)C(=O)N[C@@H]([C@@H](C)CC)C(=O)N[C@@H](CC(N)=O)C(=O)N[C@@H](CC(N)=O)C(=O)N1)C(=O)NCC(N)=O [Compound 47] (H-CFINNCP[X1]G-NH2; disulfide 1-6; N-terminus and C-terminus assumed)",
    "pEC50": 9.00
  },
  {
    "Compound": "CC[C@H](C)[C@@H]1NC(=O)[C@H](Cc2ccccc2)NC(=O)[C@@H](N)CSSC[C@@H](C(=O)N2CCC[C@H]2C(=O)N[C@@H](CCN)C(=O)NCC(N)=O)NC(=O)[C@H](CC(N)=O)NC(=O)[C@H](CC(=O)NC)NC1=O [Compound 31] (H-CFID(NHMe)NCP[Dab]G-NH2; disulfide 1-6; N-terminus and C-terminus assumed)",
    "pEC50": 8.41
  },
  {
    "Compound": "CC[C@H](C)[C@@H]1NC(=O)[C@H](Cc2ccccc2)NC(=O)[C@@H](N)CSSC[C@@H](C(=O)N2CCC[C@H]2C(=O)N[C@@H](CCCN)C(=O)NCC(N)=O)NC(=O)[C@H](CC(N)=O)NC(=O)[C@H](CC(N)=O)NC1=O [Compound 30] (H-CFINNCP[Orn]G-NH2; disulfide 1-6; N-terminus and C-terminus assumed)",
    "pEC50": 8.84
  }
]

* * *

Measured in vivo duration relative to AVP values are reported for all entries that follow.
Tested on: anaesthetised Sprague-Dawley male rats
Assay: in vivo duration of action, blood pressure test in anaesthetised rats
Set-up: species or system rat
Settings: ratio of decay rate of diastolic blood pressure response, AVP 0.1 nmol/kg i.v. to equieffective dose of compound; dibenamine-pretreated rats
Starred links: 1 amine or outer side, 2 acyl side, 3 side chain; linkers in the order of their positions; H or OH if unused. Positions of bridges follow the written chain, without caps; N, C: chain ends. Non-standard residues stand in square brackets, D forms with d. Residues, ends and D or L forms follow the SMILES beside them. Orn(Me) = CN(CCC[C@H](N[*:1])C(=O)[*:2])[*:3]; Ala(2-furyl) = N[C@@H](Cc1ccco1)C(=O)O; Orn = NCCC[C@H](N)C(=O)O; Dab = NCC[C@H](N)C(=O)O
Measurement kind: in vivo duration relative to AVP

[
  {
    "Compound": "CC[C@H](C)[C@@H]1NC(=O)[C@H](Cc2ccco2)NC(=O)[C@@H](N)CSSC[C@@H](C(=O)N2CCC[C@H]2C(=O)N[C@@H](CCCN)C(=O)NCC(N)=O)NC(=O)[C@H](CC(N)=O)NC(=O)[C@H](CCC(N)=O)NC1=O [Compound 32] (H-C[Ala(2-furyl)]IQNCP[Orn]G-NH2; disulfide 1-6)",
    "Measurement kind": "in vivo duration relative to AVP",
    "Result": 2.1
  },
  {
    "Compound": "CC[C@H](C)[C@@H]1NC(=O)[C@H](Cc2ccccc2)NC(=O)[C@@H](N)CSSC[C@@H](C(=O)N2CCC[C@H]2C(=O)N[C@@H](CCCNC)C(=O)NCC(N)=O)NC(=O)[C@H](CC(N)=O)NC(=O)[C@H](CCC(N)=O)NC1=O [Compound 39] (H-CFIQNCP[Orn(Me)]G-NH2; disulfide 1-6; N-terminus and C-terminus assumed)",
    "Measurement kind": "in vivo duration relative to AVP",
    "Result": 1.9
  },
  {
    "Compound": "CC[C@H](C)[C@@H]1NC(=O)[C@H](Cc2ccco2)NC(=O)[C@@H](N)CSSC[C@@H](C(=O)N2CCC[C@H]2C(=O)N[C@@H](CCN)C(=O)NCC(N)=O)NC(=O)[C@H](CC(N)=O)NC(=O)[C@H](CCC(N)=O)NC1=O [Compound 26] (H-C[Ala(2-furyl)]IQNCP[Dab]G-NH2; disulfide 1-6; N-terminus and C-terminus assumed)",
    "Measurement kind": "in vivo duration relative to AVP",
    "Result": 2.0
  }
]

* * *

Tested on: anaesthetised Sprague-Dawley male rats
Test: in vivo duration of action, blood pressure test in anaesthetised rats
Set-up: species or system rat
Details: ratio of decay rate of diastolic blood pressure response, AVP 0.1 nmol/kg i.v. to equieffective dose of compound; dibenamine-pretreated rats
Positions of bridges follow the written chain, without caps; N, C: chain ends. Non-standard residues stand in square brackets, D forms with d. Residues, ends and D or L forms follow the SMILES beside them. Orn(iPr) = CC(C)NCCC[C@H](N)C(=O)O; 3Thi = N[C@@H](Cc1ccsc1)C(=O)O; Aad = N[C@@H](CCCC(=O)O)C(=O)O; Dab = NCC[C@H](N)C(=O)O

[
  {
    "Compound": "CC[C@H](C)[C@@H]1NC(=O)[C@H](Cc2ccsc2)NC(=O)[C@@H](N)CSSC[C@@H](C(=O)N2CCC[C@H]2C(=O)N[C@@H](CCN)C(=O)NCC(N)=O)NC(=O)[C@H](CC(N)=O)NC(=O)[C@H](CCC(N)=O)NC1=O [Compound 15] (H-C[3Thi]IQNCP[Dab]G-NH2; disulfide 1-6)",
    "Target entity": "anaesthetised Sprague-Dawley male rats",
    "in vivo duration relative to AVP": 2.2
  },
  {
    "Compound": "CC[C@H](C)[C@@H]1NC(=O)[C@H](Cc2ccccc2)NC(=O)[C@@H](N)CSSC[C@@H](C(=O)N2CCC[C@H]2C(=O)N[C@@H](CCCNC(C)C)C(=O)NCC(N)=O)NC(=O)[C@H](CC(N)=O)NC(=O)[C@H](CCCC(N)=O)NC1=O [Compound 1, [Phe^2,Hgn^4,Orn(i-Pr)^8]VT] (H-CFI[Aad](NH2)NCP[Orn(iPr)]G-NH2; disulfide 1-6; N-terminus and C-terminus assumed)",
    "Target entity": "anaesthetised Sprague-Dawley male rats",
    "in vivo duration relative to AVP": 1.7
  }
]

The measurements presented in this section are drawn from patent US8222202B2.
